assay: qHTS assay to identify small molecule antagonists of the estrogen receptor beta (ER-beta) signaling pathway - cell viability counter screen (AID 1259382); conditions: ER-beta-UAS-bla HEK293T viability, CellTiter-Glo luminescence, 16 h; series mostly up to 92.4 µM; note: nearly all actives have a fitted effect of over 55% in size
Inconclusive results are not listed. The source made the active and inactive calls. Calls come from the whole dose curve; as a rule, active = well fitted cell-killing curve with a large enough effect in the repeat runs; inconclusive = weak or mixed curves; inactive = flat fitted curve, though single readings scatter.
Tick one outcome: yes (1) (active), no (0) (inactive)

Consider the following illustrative entries.
>  <compound>
OCC(Br)CBr (configuration not stated)

>  <label>
no (0)

$$$$
>  <compound>
N#Cc1c2ccccc2cc2ccccc12

>  <label>
no (0)

$$$$
>  <compound>
[O]=[Cr][O][Cr]=[O]

>  <label>
no (0)

$$$$
>  <compound>
O=Cc1ccccc1

>  <label>
no (0)

$$$$
>  <compound>
CC(O)C(=O)[O][Hg][c]1ccccc1 (configuration not stated)

>  <label>
yes (1)

$$$$

Exercise: Write down the call the test reported for this compound. Item: S=C=Nc1ccccc1
Key: no (0)

Exercise: Write down the call the test reported for this compound. Item: CCCC[N+]1(C)CCCC1 (tested in a mixture with another compound)
Key: no (0)

Exercise: Write down the call the test reported for this compound. Item: Oc1cc(Cl)c(Cl)c(Cl)c1Cl
Key: no (0)

Exercise: Write down the call the test reported for this compound. Item: Cc1cnc2c(C(=O)O)c(Cl)ccc2c1
Key: no (0)
